Entry source: patent US20240409645A1

- assay-system: T1, human interleukin-2 receptor α-chain (IL-2Rα; CD25), recombinant protein (human, UniProt P01589 22-240, limits assumed)
- T1 construct: also called huIL2R-a; hIL-2RA
- T1 sequence: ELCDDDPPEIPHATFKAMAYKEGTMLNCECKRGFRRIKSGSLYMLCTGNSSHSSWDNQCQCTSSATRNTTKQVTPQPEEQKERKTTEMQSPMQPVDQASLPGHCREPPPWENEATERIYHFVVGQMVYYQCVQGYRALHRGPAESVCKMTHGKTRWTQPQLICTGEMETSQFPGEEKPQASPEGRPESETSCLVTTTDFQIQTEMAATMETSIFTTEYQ
- assay-procedure: P.E. binding ELISA
Item-by-item account of OD450 nm

| binder | OD450 nm (OD450 nm) |
| --- | --- |
| 3-MP01E03 VHH (periplasmic extract) (VHH, soluble VHH in periplasmic extract) VHH: QVQLVESGGGLVQAGGSLRLSCTASGRTLSSYSMAWFRQAADKGREFVTAISSSGVVTHVLDSVKGRFTISRDNAKNTVYLQMNSLQPEDTALYFCAGTASSYSTYEANYNYWGQGTLVTVSS | 2.54 |
| 6-MP01G05 VHH (periplasmic extract) (VHH, soluble VHH in periplasmic extract) VHH: QVQLQESGGGLVQAGGSLRLSCAASGRTFSSYAMGWFRQAPGKEREFVAVISWNVDNTEYTDSVKGRFTISRDNDKNMVYLQMNSLKPEDTAVYYCAADSIPLSSDMSPTATEYGYWGQGTQVTVSS | 1.79 |
| 4-MP01F04 VHH (periplasmic extract) (VHH, soluble VHH in periplasmic extract) VHH: QVQLVESGGGLVQAGGSLRLSCAASGGTFRTRNMGWFRRAPGKEREFVAAVSWNVDNKLYADSVKGRFTISRDNGRNMVYLQMNSLKPEDTAVYYCAADNIPLSSDMRPTATEYDYWGQGTQVTVSS | 2.49 |
| 11-MP05H04 VHH (periplasmic extract) (VHH, soluble VHH in periplasmic extract) VHH: QLQLVESGGGLVQAGGSLRLSCAASGLTFEGYAIGWFRQAPGKEREGVSYITGSDGTTYYINSVKGRFTISSDNAKSTVYLQMNTLKPEDTAVYYCAVDRLGSQGRYASAWWRSGDMDLWGKGTQVTVSS | 2.22 |
| 12-MP05B12 VHH (periplasmic extract) (VHH, soluble VHH in periplasmic extract) VHH: QVQLVESGGGLVQAGGSLRLSCAASGFTFDGYAIGWFRQAPGKEREGVSYITGSDGSTYYADSVKGRFTISSNNAKNTVYLHMNSLKPDDAAVYYCAIDRLGSRGAYVPIWWRSSDMDLWGKGTLVTVSS | 2.14 |
| 10-MP05F03 VHH (periplasmic extract) (VHH, soluble VHH in periplasmic extract) VHH: QVQLVESGGGLVQAGGSLRLSCAASGIPFDNYAMGWFRQAPGKEREFVAARDLEGIITRYGDSVKGRFTISRGNAKNTVFLQMNSLKPEDTAVYYCAARDGGVVAGSRSSAQYNYWGQGTQVTVSS | 2.46 |
| 1-MP01H01 VHH (periplasmic extract) (VHH, soluble VHH in periplasmic extract) VHH: EVQLVESGGGLVQAGGSLRLSCAASGRTFRTHNMGWFRRAPGKEREFVAAISWNVDNTLYADSVKGRFTISRDNGRNMVYLQMNSLKPEDTAVYYCAADNIPLSSDVAATATEYDYWGQGTQVTVSS | 1.71 |
| 8-MP01C12 VHH (periplasmic extract) (VHH, soluble VHH in periplasmic extract) VHH: QVQLVESGGGLVQPGGSLRLSCATSGFTFSNNFMSWVRQAPGKGLEFVSTISYGGESTTYAEAVKGRFTISRDNAKNTLYLQMNNLKPEDTAIYYCAKATSYTSIRGAPRGQGTQVTVSS | 2.53 |
